Measured values drawn from patent US20080064052A1 for this set.

Molecular target: T1, mouse EphB4 ectodomain Fc fusion protein (mouse EphB4-Fc-His, R&D Systems) (mouse, UniProt P54761 16-539)
T1 construct: extracellular domain; also called murine EphB4; not shown: Fc part of a bought fusion protein; His tag of the bought protein
T1 sequence (looked up): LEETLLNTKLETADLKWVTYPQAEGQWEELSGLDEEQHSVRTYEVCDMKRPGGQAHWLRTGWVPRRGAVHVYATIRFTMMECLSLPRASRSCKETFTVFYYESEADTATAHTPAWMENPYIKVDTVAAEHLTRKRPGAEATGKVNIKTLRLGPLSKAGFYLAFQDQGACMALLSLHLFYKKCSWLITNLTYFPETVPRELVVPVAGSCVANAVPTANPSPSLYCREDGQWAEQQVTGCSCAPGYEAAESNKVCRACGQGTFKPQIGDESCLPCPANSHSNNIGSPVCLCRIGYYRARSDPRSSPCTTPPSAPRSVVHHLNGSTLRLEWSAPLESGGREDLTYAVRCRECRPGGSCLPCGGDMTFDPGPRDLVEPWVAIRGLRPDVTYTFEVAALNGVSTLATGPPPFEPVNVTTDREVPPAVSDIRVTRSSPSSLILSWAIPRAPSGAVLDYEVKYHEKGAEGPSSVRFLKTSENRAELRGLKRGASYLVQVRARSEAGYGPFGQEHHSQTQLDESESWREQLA
Assay: competition ELISA: inhibition of mouse ephrin-B2 AP binding to immobilized mouse EphB4 ectodomain Fc
pIC50: −log10 of the molar value. Ends that are not written are not given here. * marks the point of attachment. Biotin = O=C1N[C@H]2[C@H](CS[C@H]2CCCCC(=O)*)N1
METRIC NAME: pIC50

{"BINDER": "TNYLFSPNGPIA [TNYL peptide (TNYLFSPNGPIA)]", "REPORTED MEASUREMENT": 3.82}
{"BINDER": "Human ephrin-B2 monomer (ligand) IVLEPIYWNSSNSKFLPGQGLVLYPQIGDKLDIICPKVDSKTVGQYEYYKVYMVDKDQADRCTIKKENTPLLNCAKPDQDIKFTIKFQEFSPNLWGLEFQKNKDYYIISTSNGSLEGLDNQEGGVCQTRAMKILMKVG", "REPORTED MEASUREMENT": 8.00}
{"BINDER": "ephrin-B2 Fc (Fc fusion, not shown: a dimerising Fc or GST; large carriers; small tags and cut ends) RSIVLEPIYWNSSNSKFLPGQGLVLYPQIGDKLDIICPKVDSKTVGQYEYYKVYMVDKDQADRCTIKKENTPLLNCARPDQDVKFTIKFQEFSPNLWGLEFQKNKDYYIISTSNGSLEGLDNQEGGVCQTRAMKILMKVGQDASSAGSARNHGPTRRPELEAGTNGRSSTTSPFVKPNPGSSTDGNSAGHSGNNLLGSEVALFA", "REPORTED MEASUREMENT": 8.05}
{"BINDER": "TNYLFSPNGPIARAW (Synthetic 15-mer (Biopeptide, Inc.); Peptide positions are printed as P1 to P15; also called antagonistic peptide) [TNYL-RAW peptide (TNYLFSPNGPIARAW)]", "REPORTED MEASUREMENT": 7.82}
{"BINDER": "TNYLFSPNGPIAGSGSK(Biotin) [TNYL-biotin peptide (TNYLFSPNGPIAGSGSK-biotin)]", "REPORTED MEASUREMENT": 4.30}
